Please go through the items and note down their %Inh.
Tested on: ERK2
Construct: gene MAPK1
Details: concentration: 1 μM, replicates: in singlicate; n = 1;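 note: KINOMEscan kinase panel screen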
Give your result in % as a bare value.

Exercise: Fill blank: measured %Inh of the compound `O=C(Nc1c(F)cccc1F)c1cc(C(=O)c2ccccc2F)c[nH]1` is ____.
Solution: 3

Exercise: I would be grateful if you could share the reported %Inh for `CN(C)CCOc1ccc(-c2cc(-c3ccc(Cl)c(O)c3)c(-c3ccncc3)[nH]2)cc1.Cl.Cl` .
Solution: 0

Exercise: Quick one: %Inh for `Fc1cc(Cl)ccc1Nc1ccnc2cc(-c3ccc(CN4CCSCC4)o3)ccc12` ?
Solution: 0

Exercise: Which %Inh is reported for this compound? `Cn1cc(-c2ccc3c(c2)CCN3C(=O)Cc2cc(F)cc(F)c2F)c2c(N)ncnc21`
Solution: 9

Exercise: I am curious: what %Inh value has been reported for `CC(C)(C)c1ccc(C(=O)Nc2cn3cc(-n4ccnc4)ccc3n2)cc1` ?
Solution: 13

Exercise: Fill in the blank: the reported %Inh of `COc1cccc(C2=C(Nc3cccc(O)c3)C(=O)NC2=O)c1` is ____.
Solution: 0

Exercise: Which %Inh value belongs to `Nc1ncc(-c2ccc3nccc(-c4ccncc4)c3c2)cc1S(=O)(=O)N1CCCCC1` ?
Solution: 0

Exercise: Look at this compound and give its reported %Inh. `CC(C)c1nc(-c2cccc(NS(=O)(=O)c3c(F)cccc3F)c2)c(-c2ccnc(Nc3ccc(N4CCOCC4)nc3)n2)s1.Cl`
Solution: 0

Exercise: I have this compound here, `Cc1ccc(C)c(NC(=O)Nc2ccc(C)c(-c3ccc(C(=O)Nc4ccncc4)cc3)c2)c1` , and I need its recorded %Inh.
Solution: 16

Exercise: Entry `CN(c1ccc2c(c1)nc(NCc1ccccc1)n2C)c1ccnc(Nc2ccc(CS(C)(=O)=O)cc2)n1.Cl` : reported %Inh = ?
Solution: 3

Exercise: Look up %Inh for this compound: `Cl.N#CCc1ccc(Nc2nccc(Nc3ccc(Oc4ccccc4)cc3)n2)cc1`
Solution: 0

Exercise: Name the recorded %Inh for `COc1cc(Nc2nccc(N3CCC(NS(=O)(=O)c4ccc(NC(C)=O)cc4)CC3)n2)cc(OC)c1OC` .
Solution: 0

Exercise: For the compound shown here, `CN(C)c1ncnc2nc[nH]c12` , give the reported %Inh.
Solution: 0

Exercise: # get_value(readout='%Inh', item= `Cc1ccccc1CC(=O)N1CCc2cc(-c3cn(C)c4ncnc(N)c34)ccc21` )
Solution: 0

Exercise: What value of %Inh has been recorded for this entry: `N#Cc1cnc2cc(-c3cnc(CNCCN4CCOCC4)s3)ccc2c1Nc1ccc(Oc2ccccc2)cc1`
Solution: 0

Exercise: Quick one: %Inh of `Nc1ncnc2scc(-c3ccc(NC(=O)Cc4cc(F)ccc4F)cc3)c12.O=C(O)C(F)(F)F` ?
Solution: 0

Exercise: Need %Inh, item `Cc1ccc(NC(=O)c2ccnc(N3CCCCC3)c2)cc1-c1ccc(C(=O)NCC2CC2)cc1`
Solution: 9

* * *

Test system: PAK4
Settings: concentration: 1 μM, replicates: in singlicate; n = 1
MEASURED_PROPERTY: %Inh

Exercise: Which %Inh is reported for this molecule? `Cl.N#CCc1ccc(Nc2nccc(Nc3ccc(Oc4ccccc4)cc3)n2)cc1`
Solution: 0%

Exercise: Could you tell me which %Inh is on file for `CCOc1nccc(-c2c(-c3ccc(F)cc3)ncn2C2CCNCC2)n1` ?
Solution: 32%

Exercise: I am curious: what %Inh value has been reported for `O=C(Nc1n[nH]c2nc(-c3cccc(O)c3)ccc12)C1CC1` ?
Solution: 0%

Exercise: So what's the measured %Inh for this one? `CN(c1ccc2c(c1)nc(NCc1ccccc1)n2C)c1ccnc(Nc2ccc(CS(C)(=O)=O)cc2)n1.Cl`
Solution: 22%

Exercise: Entry `COc1cccc(CC(=O)N2CCc3cc(-c4cn(C)c5ncnc(N)c45)ccc32)c1` : reported %Inh = ?
Solution: 2%

Exercise: Field request: %Inh | item: `CC(=O)Nc1cn2nc(Oc3cccc(NC(=O)c4cccc(C(F)(F)F)c4)c3)ccc2n1`
Solution: 15%

Exercise: What value of %Inh has been reported for the following molecule? `N#CC1(c2cccc(C(=O)Nc3cccc(Oc4ccc5nc(NC(=O)C6CC6)sc5n4)c3)c2)CC1`
Solution: 0%

Exercise: What measured %Inh goes with `COc1cccc(C2=C(Nc3cccc(O)c3)C(=O)NC2=O)c1` ?
Solution: 0%

Exercise: Dear colleague, I am looking for the recorded %Inh of the following molecule: `Fc1cc(Cl)ccc1Nc1ccnc2cc(-c3ccc(CN4CCOCC4)o3)ccc12`
Solution: 0%

* * *

Provide the reported %Inh of each item.
Tested on: DLK
Construct: gene MAP3K12
Conditions: concentration: 1 μM, replicates: in singlicate; n = 1
All answers are understood in %, so give the number only.

Exercise: Query: %Inh; subject: `Cc1ccc(O)cc1Nc1ccnc2cc(-c3ccc(CN4CCCCC4)o3)ccc12`
Solution: 0

Exercise: Which value of %Inh has been reported for `CC(C)c1nc(-c2ccc(F)c(NS(=O)(=O)c3c(F)cccc3F)c2)c(-c2ccnc(Nc3ccc(N4CCOCC4)nc3)n2)s1` in the records?
Solution: 68

Exercise: Which %Inh is reported for this compound? `O=C1NC(=O)C(c2ccccc2Cl)=C1Nc1cccc(Cl)c1`
Solution: 0

Exercise: %Inh lookup needed for `Cl.N#CCc1ccc(Nc2nccc(Nc3ccc(Oc4ccccc4)cc3)n2)cc1` , thanks.
Solution: 35

Exercise: # lookup: %Inh of `Fc1cc(Cl)ccc1Nc1ccnc2cc(-c3ccc(CN4CCSCC4)o3)ccc12`
Solution: 46

Exercise: Would you kindly share the measured %Inh for `Fc1cc(Cl)ccc1Nc1ccnc2cc(-c3ccc(CN4CCOCC4)o3)ccc12` ?
Solution: 28

Exercise: If you can, please state the reported %Inh value of `CN(c1ccc(NC(=O)N2CCN(CCCN3CCOCC3)CC2)cc1)c1ccnc(Nc2ccc(CS(C)(=O)=O)cc2)n1.Cl` .
Solution: 24

Exercise: What value of %Inh has been recorded for this entry: `COc1cccc2c(-c3ccncc3)c(-c3ccc(F)cc3)nn12`
Solution: 46

* * *

Test system: FER
Conditions: concentration: 1 μM, replicates: in singlicate; n = 1
Please enter rule met where %Inh is greater than or equal to 6%, and rule not met where it is lower.

Exercise: Reported %Inh at or above 6%? `CN(c1ccc(F)c(NC(=O)c2cccc(OC(C)(C)C#N)c2Cl)c1)c1ccc2nc(NC(=O)C3CC3)sc2n1`
Solution: rule not met

Exercise: Test whether the molecule `N#CC1(c2cccc(C(=O)Nc3cccc(Oc4ccc5nc(NC(=O)C6CC6)sc5n4)c3)c2)CC1` records %Inh of 6% or higher.
Solution: rule met

Exercise: Assess whether reported %Inh for `O=C1NC(=O)C(c2ccccc2Cl)=C1Nc1cccc(Cl)c1` sits at 6% or higher.
Solution: rule not met

Exercise: State whether the measured %Inh reaches 6%, counting equality as reaching it, for `Cc1ccc(O)cc1Nc1ccnc2ccc(C(C)(C)C)cc12`
Solution: rule met

Exercise: Does the reported %Inh for NCCC(NC(=O)c1cc(Br)c(-c2ccnc3[nH]ccc23)s1)c1ccccc1.O=C(O)C(F)(F)F.O=C(O)C(F)(F)F (stereo not shown) fall at or above the 6% mark?
Solution: rule not met

Exercise: Evaluate `Cc1cccc(Nc2nc(NCCN)ncc2C(N)=O)c1` : %Inh at minimum 6%?
Solution: rule met

Exercise: Quick check: does `CC(C)c1nc(-c2ccc(F)c(NS(=O)(=O)c3c(F)cccc3F)c2)c(-c2ccnc(Nc3ccc(N4CCOCC4)nc3)n2)s1` have %Inh greater than or equal to 6%?
Solution: rule met

Exercise: %Inh >= 6% for `CS(=O)(=O)c1cccc(CNc2nc(Nc3ccc4c(c3)CCC(=O)N4)ncc2C(F)(F)F)c1` ?
Solution: rule not met

Exercise: Check this molecule for %Inh at or above 6%: `Nc1ncc(-c2ccc3nccc(-c4ccncc4)c3c2)cc1S(=O)(=O)N1CCCCC1`
Solution: rule met

Exercise: Determine whether this molecule has %Inh no lower than 6%: `CC(C)c1nc(-c2cccc(NS(=O)(=O)c3c(F)cccc3F)c2)c(-c2ccnc(Nc3ccc(N4CCOCC4)nc3)n2)s1.Cl`
Solution: rule met

Exercise: Threshold query (%Inh >= 6%) on `Cc1cc(-c2c(-c3ccc(F)cc3)ncn2CCCN2CCOCC2)nc(N)n1`
Solution: rule met

Exercise: Would you say `Cc1ccc(Nc2ccnc(Nc3ccc(C)c(F)c3)n2)cc1O.Cl` shows %Inh at minimum 6%?
Solution: rule not met

Exercise: Given `CC(C)(C)c1ccc(C(=O)Nc2cn3cc(-n4ccnc4)ccc3n2)cc1` , state whether its %Inh is at least 6%.
Solution: rule not met

Exercise: Is %Inh for `Cc1cccc(Nc2nc(N[C@H]3CCCC[C@H]3N)ncc2C(N)=O)c1.Cl` at or above 6%?
Solution: rule met

Exercise: Check if %Inh >= 6% (inclusive). Item: `CN(C)CCOc1ccc(-c2cc(-c3ccc(Cl)c(O)c3)c(-c3ccncc3)[nH]2)cc1.Cl.Cl`
Solution: rule met
